Molecular target: T1, Human recombinant AXL-FND1 (GST-FND1), from pET-41b(+) (human, UniProt P30530 225-331)
T1 construct: Expressed in E. coli, purified on Glutathione Sepharose; analyte in all Biacore measurements; GST put first by the usual layout of pET-41; not shown: GST-tag of vector pET-41b(+) (Novagen)
T1 sequence (looked up): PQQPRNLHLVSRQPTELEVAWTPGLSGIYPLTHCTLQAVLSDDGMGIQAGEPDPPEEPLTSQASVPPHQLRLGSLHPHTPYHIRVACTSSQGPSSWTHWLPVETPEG
Assay: SPR (Biacore T100): antibody captured on Protein A, GST-FND1 as analyte
readout: Kd (nM)
Quick note: give the figure in nM, leave out the unit.

Solved cases (2 shown):
binder	quantitative result
H34/L0 (antibody, human IgG1, kappa, V domains shown) VH: QVTLKESGPVLVKPTETLTLTCTVSGFSLSKFGVDWVRQAPGKGLEWMGVIWGGGSTNYNSALKSRLTISKDNSKSQVVLTMTNMDPVDTATYYCAGEGSKYGAWFAYWGQGTLVTVSS VL: DVVMTQSPLSLPVTLGQPASISCRSSQNIVHTNGNTYLEWYQQKPGKAPELLIYKVSNRFSGVPDRFSGSGSGTDFTLKISRVEAEDVGVYYCFQGSHIPFTFGQGTKLEIKR	5.94
H9/L13 (antibody, human IgG1, kappa, V domains shown) VH: QVTLKESGPVLVKPTETLTLTCTVSGFSLSSFGVDWVRQAPGKGLEWMGVIWGGGSTNYNSALKSRLTISKDNSKSQVVLTMTNMDPVDTATYYCAGEGSKYGAWFAYWGQGTLVTVSS VL: DVVMTQSPLSLPVTLGQPASISCQSSQNIVHTNGNTYLEWYQQKPGQAPELLIYKVSNRFSGVPDRFSGSGSGTDFTLKISRVEAEDVGVYYCFQGSHIPFTFGQGTKVEIER	2.45

As a next step, examine the binder that follows.
In: Quick check: Kd of H9/L28 (antibody, human IgG1, kappa, V domains shown) VH: QVTLKESGPVLVKPTETLTLTCTVSGFSLSSFGVDWVRQAPGKGLEWMGVIWGGGSTNYNSALKSRLTISKDNSKSQVVLTMTNMDPVDTATYYCAGEGSKYGAWFAYWGQGTLVTVSS VL: DVVMTQSPLSLPVTLGQPASISCRSSQNIVHTNGNTYLEWYQQKPGKAPKLLIYKVSNRFSGVPDRFSGSGSGTDFTLKISRVEAEDVGVYYCFQGSHIPFTFGQGTKLEIKR ?
Out: 3.06
